test details: Plasma pharmacokinetics (LC/MS/MS, noncompartmental analysis)
recorded conditions: human, plasma, intravenous, 157 mg/m^2
experimental endpoint: AUC(0-t) (ng·h/mL)
Write it as a number; the unit ng·h/mL goes unstated.

Per the record, NS(=O)(=O)OC[C@@H]1C[C@@H](n2ccc3c(N[C@H]4CCc5ccccc54)ncnc32)C[C@@H]1O has AUC(0-t) of 7250

====

test details: clinical
recorded conditions: human, in vivo
experimental endpoint: Tmax (h)
Write it as a number; the unit h goes unstated.

Per the record, NS(=O)(=O)OC[C@@H]1C[C@@H](n2ccc3c(N[C@H]4CCc5ccccc54)ncnc32)C[C@@H]1O has Tmax of 1

====

test details: Plasma pharmacokinetics (LC/MS/MS, noncompartmental analysis)
recorded conditions: human, plasma, intravenous, 157 mg/m^2
experimental endpoint: Cmax (ng/mL)
Write it as a number; the unit ng/mL goes unstated.

Per the record, NS(=O)(=O)OC[C@@H]1C[C@@H](n2ccc3c(N[C@H]4CCc5ccccc54)ncnc32)C[C@@H]1O [pevonedistat, Pevonedistat] has Cmax of 2450

====

test details: Plasma pharmacokinetics (LC/MS/MS, noncompartmental analysis)
recorded conditions: human, plasma, intravenous, 157 mg/m^2
experimental endpoint: half-life (h)
Write it as a number; the unit h goes unstated.

Per the record, NS(=O)(=O)OC[C@@H]1C[C@@H](n2ccc3c(N[C@H]4CCc5ccccc54)ncnc32)C[C@@H]1O has half-life of 10.1

====

test details: clinical
recorded conditions: human, in vivo
experimental endpoint: half-life (h)
Write it as a number; the unit h goes unstated.

Per the record, NS(=O)(=O)OC[C@@H]1C[C@@H](n2ccc3c(N[C@H]4CCc5ccccc54)ncnc32)C[C@@H]1O has half-life of 10.4

====

test details: Plasma pharmacokinetics (LC/MS/MS, noncompartmental analysis)
recorded conditions: human, plasma, intravenous, 157 mg/m^2
experimental endpoint: Tmax (h)
Write it as a number; the unit h goes unstated.

Per the record, NS(=O)(=O)OC[C@@H]1C[C@@H](n2ccc3c(N[C@H]4CCc5ccccc54)ncnc32)C[C@@H]1O [pevonedistat, Pevonedistat] has Tmax of 1

====

test details: clinical
recorded conditions: human, in vivo
experimental endpoint: clearance (mL/min)
Write it as a number; the unit mL/min goes unstated.

Per the record, NS(=O)(=O)OC[C@@H]1C[C@@H](n2ccc3c(N[C@H]4CCc5ccccc54)ncnc32)C[C@@H]1O [pevonedistat, Pevonedistat] has clearance of 635

====

test details: Plasma pharmacokinetics (LC/MS/MS, noncompartmental analysis)
recorded conditions: human, plasma, iv
experimental endpoint: half-life

Per the record, NS(=O)(=O)OC[C@@H]1C[C@@H](n2ccc3c(N[C@H]4CCc5ccccc54)ncnc32)C[C@@H]1O [pevonedistat, Pevonedistat] has half-life of ~10 h
